Cited source for all entries: patent US20190233498A1

Target: T1, human PACAP38 (human, not fully specified; C-terminal lysine is amidated; N-terminal or C-terminal biotin in the HTRF and PC-12 cell binding assays)
T1 construct: synthetic peptide, bought; also called huPACAP (1-38)
T1 peptide: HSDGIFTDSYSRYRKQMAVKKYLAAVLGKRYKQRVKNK
Test: inhibition of 30 nM biotin-PACAP38 binding to PC-12 cells, TRF
Please use true (1) for IC50 under 30 nM and false (0) for everything else, ties included.

Worked examples follow.
{"BINDER": "anti-PACAP antibody Ab5.H (antibody, human IgG1, kappa, N297A, V domains shown, humanized form of Ab5, full length) VH: EVQLVESGGGLVQPGGSLRLSCAASGFSLSSYAMIWVRQAPGKGLEWVGIIYDNGDTYYASSAKGRFTISRDNSKNTVYLQMNSLRAEDTAVYFCAREPGSTTQNDLWGQGTLVTVSS VL: DVQMTQSPSTLSASVGDRVTITCQASENIYNSLLWYQQKPGKAPKLLIYRASTLASGVPSRFSGSGSGTEFTLTISSLQPDDFATYYCQNYYNIWTNGAAFGGGTKVEIKR", "ANSWER LABEL": "false (0)"}
{"BINDER": "anti-PACAP antibody Ab4.H (antibody, human IgG1, kappa, N297A, V domains shown, humanized form of Ab4, full length) VH: EVQLVESGGGLVQPGGSLRLSCAASGFSLSSYDMSWVRQAPGKGLEWIGIINTNDDTWYASWVKGRFTISRDNSKNTLYLQMNSLRAEDTAVYYCARISDAYVFDYAYYFTLWGQGTLVTVSS VL: DIQMTQSPSTLSASVGDRVTITCLASQNIYNSLAWYQQKPGKAPKLLIYRASTLASGVPSRFSGSGSGTEFTLTISSLQPDDFATYYCQQGAGADNIGNPFGGGTKVEIKR", "ANSWER LABEL": "false (0)"}
{"BINDER": "anti-PACAP antibody Ab3.H (antibody, human IgG1, kappa, N297A, V domains shown, humanized form of Ab3, full length) VH: EVQLVESGGGLVQPGGSLRLSCAASGFSFSSSDYMCWVRQAPGKGLEWIGCIDAGSSGDTYFASSAKGRFTISRDNSKNTVYLQMNSLRAEDTAVYFCARHLYGSITFAFGLWGQGTLVTVSS VL: AAQMTQSPSTLSASVGDRVTITCQASQSIGSDLAWYQQKPGKAPKLLIYDASTLASGVPSRFSGSGSGTEFTLTISSLQPDDFATYYCQGTYYSSGWYTAFGGGTKVEIKR", "ANSWER LABEL": "false (0)"}
{"BINDER": "anti-PACAP antibody Ab23 (antibody, human IgG1, kappa, N297A, V domains shown, full-length rabbit/human chimeric antibody; PACAP38 specific) VH: QSVEESGGRLVTPGTPLTLTCTVSGFSLNNYAMSWVRQAPGKGLEWIGIMGVNDITYYASWAKGRFTISKTSTTVDLKMTSLTTEDTATYFCTREIRDDGDSSDKLWGPGTLVTVSS VL: AIKMTQTPSSVSAAVGGTVTINCQASEDIYTNLAWYQQKPGQPPNLLIYDASDLASGVPSRFSGSGDGTQFTLTISAVQCEDAATYYCQGVAWSSNTGYGSAFGGGTEVVVKR", "ANSWER LABEL": "true (1)"}
{"BINDER": "anti-PACAP antibody Ab1.H (antibody, human IgG1, kappa, N297A, V domains shown, humanized form of Ab1, full length) VH: EVQLVESGGGLVQPGGSLRLSCAASGFTVSSAVMNWVRQAPGKGLEWIGSIVASGTTYYASSANGRFTISRDNSKNTLYLQMNSLRAEDTAVYYCARGGGEFFIWGQGTLVTVSS VL: DIQMTQSPSTLSASVGDRVTITCQSSESVYSNYLSWYQQKPGKAPKFLIYQASNLASGVPSRFSGSGSGTEFTLTISSLQPDDFATYYCAGGYSENIVGFGGGTKVEIKR", "ANSWER LABEL": "false (0)"}
{"BINDER": "anti-PACAP antibody Ab9.H (antibody, human IgG1, kappa, N297A, V domains shown, humanized form of Ab9, full length) VH: EVQLVESGGGLVQPGGSLRLSCAASGFTVSRDYWICWVRQAPGKGLEWIGCISAGGGSTDYANWVNGRFTISRDISKNTGYLQMNSLRAEDTAVYYCAGNLEIWGQGTLVTVSS VL: DIQMTQSPSTLSASVGDRVTITCQSSPSIYSGAFLSWYQQKPGKAPKFLIYEASKLASGVPSRFSGSGSGTEFTLTISSLQPDDFATYYCLGFYDCSSVDCHAFGGGTKVEIKR", "ANSWER LABEL": "true (1)"}
{"BINDER": "anti-PACAP antibody Ab22 (antibody, human IgG1, kappa, N297A, V domains shown, full-length rabbit/human chimeric antibody; PACAP38 specific) VH: QEQLVESGGGLVQPEGSLTLTCTASGFDFSSNAMCWVRQAPGKGLEWIGSIYNADGKNYYAIWAKGRFTISRTSSTTVTLQMTSLTAADTATYFCARDFDLWGQGTLVTVSS VL: AAVLTQTPSPVSAAVGGTVTINCQSSQSVYDNDWLAWFQQKPGQPPKLLIYLTSTLASGVPSRFSGSGSGTQFTLTISGVQCDDAATYYCLGGYDEDGDTHVFGGGTEVVVKR", "ANSWER LABEL": "true (1)"}

For the next question, use this binder.
Is 30 nM strictly greater than the binder's reported IC50? binder: anti-PACAP antibody Ab12.H (antibody, human IgG1, kappa, N297A, V domains shown, humanized form of Ab12, full length) VH: EVQLVESGGGLVQPGGSLRLSCAASGFSLSSYAMGWVRQAPGKGLEWIGDISTYGTTDYASWVYGRFTISRDNSKNTVYLQMNSLRAEDTAVYFCARDYWLSLWGQGTLVTVSS VL: AAQLTQSPSTLSASVGDRVTITCQSSQSVYDNNALAWYQQKPGKAPKLLIYAASTLASGVPSRFSGSGSGTEFTLTISSLQPDDFATYYCLGGYYDPADNAFGGGTKVEIKR
false (0)
